Exercise: for every item that follows, state its recorded Papp at 4 h.
test: in vitro; settings: PAMPA, pH 7.4, Permeability classification

compound: CN(C)c1ccc(-c2ccc3cc(C#N)c(=N)oc3c2)cc1
Papp at 4 h: > 0.4 ×10⁻⁶ cm/s

Consider now this further compound.
# get_value(readout='Papp at 4 h', item= CC(=O)[C@H]1CC[C@H]2[C@@H]3CCC4=CC(=O)CC[C@]4(C)[C@H]3CC[C@]12C [Progesterone, reference compound] )
> 0.4 ×10⁻⁶ cm/s

---

experiment: Solubility of IRI-1 in PBS (absorbance at 405 nm); type: physicochemical; conditions: aqueous buffer, kinetic from dmso stock, PBS containing 2% DMSO, read-out: concentration up to which the dye exists as a monomer in PBS, above which soluble aggregates form
value.type: solubility (µM)
Give bare numbers, in µM.

Value lookup for solubility; key = CN(C)c1ccc(-c2ccc3cc(C#N)c(=N)oc3c2)cc1 [IRI-1]
4.7

---

target: Aβ fibrils (Aβ1-42) (Homo sapiens); construct: lyophilized Aβ1-42 peptides were dissolved in 100% HFIP; assay: Aβ1-42 saturation titration (fluorescence at 566 nm); conditions: Aβ fibrils 10 μM, IRI-1 0-50 μM, PBS containing 2% DMF, nonlinear fitting; read-out: binding affinity toward Aβ fibrils, Kd
Sequence (P05067 672-713 limits assumed): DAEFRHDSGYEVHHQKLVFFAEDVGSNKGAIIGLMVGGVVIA
value.type: Kd (nM)
One number for each entry, in nM.

Value lookup for Kd; key = CN(C)c1ccc(-c2ccc3cc(C#N)c(=N)oc3c2)cc1
374

---

assay: in vitro; conditions: PAMPA, pH 7.4, Pe
value.type: Papp at 4 h (×10⁻⁶ cm/s)
Give bare numbers, in ×10⁻⁶ cm/s.

compound: CN(C)c1ccc(-c2ccc3cc(C#N)c(=N)oc3c2)cc1
measurement.unit: ×10⁻⁶ cm/s
obs.value: 0.562

Now for another entry.
Reported Papp at 4 h for CC(=O)[C@H]1CC[C@H]2[C@@H]3CCC4=CC(=O)CC[C@]4(C)[C@H]3CC[C@]12C [Progesterone, reference compound] : what is it?
39.5

---

test: pH-dependent absorbance, pKa fitting; format: physicochemical; conditions: PBS (10 mM) with pH adjustment; absorbance at 405 nm, pH 2-10, PBS 10 mM
value.type: pKa
One number for each entry.

Give the measured pKa of CN(C)c1ccc(-c2ccc3cc(C#N)c(=N)oc3c2)cc1 [IRI-1] .
4.22
